# credit: patent US20240270821A1

target: human GcgR (Homo sapiens, UniProt P47871); assay: Functional cAMP activity in the presence of 1% HSA; assay type: cell-based; conditions: read-out: cAMP Rel EC50, hGcgR
Sequence (P47871 26-477): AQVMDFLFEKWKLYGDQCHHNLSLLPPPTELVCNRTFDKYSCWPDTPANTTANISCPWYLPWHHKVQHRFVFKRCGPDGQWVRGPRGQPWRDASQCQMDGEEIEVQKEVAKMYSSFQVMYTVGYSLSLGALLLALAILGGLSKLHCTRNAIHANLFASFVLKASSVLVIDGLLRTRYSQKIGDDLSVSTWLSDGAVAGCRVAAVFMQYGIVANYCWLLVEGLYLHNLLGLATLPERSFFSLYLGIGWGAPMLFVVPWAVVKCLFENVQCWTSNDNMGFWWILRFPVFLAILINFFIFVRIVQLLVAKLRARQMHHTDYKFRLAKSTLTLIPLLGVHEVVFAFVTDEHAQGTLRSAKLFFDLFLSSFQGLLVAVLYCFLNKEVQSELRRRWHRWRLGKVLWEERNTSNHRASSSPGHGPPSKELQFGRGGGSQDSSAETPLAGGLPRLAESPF
Starred links: 1 amine or outer side, 2 acyl side, 3 side chain; linkers in the order of their positions; H or OH if unused. Non-standard residues stand in square brackets, D forms with d. Groups on a side chain read outwards from the residue. *: point of attachment. C18 diacid = O=C(O)CCCCCCCCCCCCCCCCC(=O)*; αMePhe(2-F) = C[C@](N)(Cc1ccccc1F)C(=O)O; γGlu = O=C(O)[C@H](CCC(=O)[*:2])N[*:1]; αMe4Pal = C[C@](N)(Cc1ccncc1)C(=O)O; αMeY = C[C@](N)(Cc1ccc(O)cc1)C(=O)O; 4Pal = N[C@@H](Cc1ccncc1)C(=O)O; αMeL = CC(C)C[C@](C)(N)C(=O)O; αMeS = C[C@](N)(CO)C(=O)O; Orn = NCCC[C@H](N)C(=O)O; AEEA = NCCOCCOCC(=O)O; Aib = CC(C)(N)C(=O)O
Measured pEC50, listed per entry.
Scale for pEC50: -log10 of concentration given in mol/L; no unit attached.

// solved cases for pEC50 follow
- H-Y[Aib]QGTFTSD[4Pal]S[Orn][αMeL]LD[Orn]K([γGlu-γGlu-γGlu-C18 diacid])AQ[αMe4Pal]AFIEYLIE[Aib]GPSSGAPPPSGSE-NH2 [Example 943]: 6.02
- H-Y[Aib]QGTFTSDYSQ[αMeL]LDKK([AEEA-γGlu-C18 diacid])AQ[Aib]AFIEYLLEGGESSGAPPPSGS-NH2 [Example 362]: 5.84
- H-Y[Aib]QGTFTSD[4Pal]SQ[αMeL]LDKK([AEEA-γGlu-C18 diacid])AQ[αMe4Pal]AFIEYLIE[Aib]GPSSGAPPPSGSEE-NH2 [Example 897]: 6.18

*Q* Param item = H-Y[Aib]QGT[αMePhe(2-F)]TSD[4Pal][αMeS]I[αMeL]LD[Orn]K([AEEA-γGlu-C18 diacid])AQ[αMe4Pal]EFI[dE][αMeY]LVEGGPSSGAPPPGGE-NH2 [Example 1154] ; retrieve measured pEC50.
*A* 6.49
